Listed here are compounds together with their documented inhibition at 3.3 µM.
- measured_on: HIV-1 protease (Human immunodeficiency virus type 1 group M subtype B, UniProt P04585)
- Construct: The protease (or proteinase) enzyme, consisting of only 99 amino acids
- assay_info: In vitro HIV protease inhibitory assay (fluorescently labeled substrate, avidin-polystyrene particles)
- Format: biochemical
- settings: HIV-1 dose 3.3 μM
Kindly answer with a numeric value in %, unit omitted.

Solved cases below.
[
  {
    "compound": "O=C1OC(Cc2ccccc2)(Cc2ccccc2)C(O)=C1C(c1cccc(NS(=O)(=O)c2cccc3cccnc23)c1)C1CC1 (stereo not drawn) [IX-46]",
    "units_text": "%",
    "inhibition at 3.3 µM": 90.3
  },
  {
    "compound": "O=C1OC(C(O)CCc2ccccc2)C(O)=C1C(c1ccccc1)C1CC1 (stereo not drawn) [BX-8]",
    "units_text": "%",
    "inhibition at 3.3 µM": 51
  },
  {
    "compound": "N#Cc1ccc(S(=O)(=O)Nc2cccc(C(C3=C(O)C(Cc4ccccc4)(Cc4ccccc4)OC3=O)C3CC3)c2)cc1 (stereo not drawn) [IX-43]",
    "units_text": "%",
    "inhibition at 3.3 µM": 98.6
  },
  {
    "compound": "O=C1OC(CCCc2ccccc2)(Cc2ccccc2)C(O)=C1C(c1ccccc1)C1CC1 (stereo not drawn) [DX-15]",
    "units_text": "%",
    "inhibition at 3.3 µM": 108
  },
  {
    "compound": "CCC(c1ccccc1)C1OC(=O)C(C(c2ccccc2)C2CC2)=C1O (stereo not drawn) [GX-6]",
    "units_text": "%",
    "inhibition at 3.3 µM": 91.9
  },
  {
    "compound": "O=C1OC2(CCN(C(=O)OCC3c4ccccc4-c4ccccc43)CC2)C(O)=C1C(c1ccccc1)C1CC1 (stereo not drawn) [IX-58]",
    "units_text": "%",
    "inhibition at 3.3 µM": 79.8
  },
  {
    "compound": "CCCC1(CCC)OC(=O)C(C(c2cccc(NS(=O)(=O)c3ncc[nH]3)c2)C2CC2)=C1O (stereo not drawn) [IX-36]",
    "units_text": "%",
    "inhibition at 3.3 µM": 37
  },
  {
    "compound": "CCCC1(CCC)OC(=O)C(C(CC)c2cccc(N)c2)=C1O (stereo not drawn) [IX-13]",
    "units_text": "%",
    "inhibition at 3.3 µM": 59.9
  }
]

Which inhibition at 3.3 µM value belongs to CCC1(CCCc2ccccc2)OC(=O)C(C(c2ccccc2)C2CC2)=C1O (stereo not drawn) [DX-11] ? 101

Any idea what inhibition at 3.3 µM was measured for CC(C)(C)C(C1=C(O)C(CCCc2ccccc2)OC1=O)c1ccccc1 (stereo not drawn) [FX-5] ? 61.9

Any idea what its inhibition at 3.3 µM is? The compound is CC(CCc1ccccc1)C1OC(=O)C(C(c2ccccc2)C2CC2)=C1O (stereo not drawn) [GX-3] 67.2

# inhibition at 3.3 µM lookup, item CCCCC1(CCCc2ccccc2)OC(=O)C(C(c2ccccc2)C2CC2)=C1O (stereo not drawn) [DX-12] 116

---

Overview of recorded inhibition at 30 µM for various molecules
- measured_on: HIV-1 protease (Human immunodeficiency virus type 1 group M subtype B)
- Construct: The protease (or proteinase) enzyme, consisting of only 99 amino acids
- assay_info: In vitro HIV protease inhibitory assay (fluorescently labeled substrate, avidin-polystyrene particles)
- Assay type: biochemical
- settings: HIV-1 dose 30.0 μM
Express the result in % but write the number alone.

Answered examples (3):
[
  {
    "molecule": "CCCC1(Cc2ccccc2)OC(=O)C(C(c2cccc(NS(=O)(=O)c3ccc(C#N)cc3)c2)C(C)C)=C1O (stereo not drawn) [IX-28]",
    "inhibition at 30 µM / %": 125
  },
  {
    "molecule": "CCC1(CC)OC(=O)C(C(c2ccccc2)C2CC2)=C1O (stereo not drawn) [BX-14]",
    "inhibition at 30 µM / %": 99
  },
  {
    "molecule": "CC1(Cc2ccccc2)OC(=O)C(C(c2ccccc2)C2CC2)=C1O (stereo not drawn) [DX-2]",
    "inhibition at 30 µM / %": 104
  }
]

Please look up its inhibition at 30 µM: N#Cc1ccc(S(=O)(=O)Nc2cccc(CC3=C(O)C(Cc4ccccc4)(Cc4ccccc4)OC3=O)c2)cc1 [IX-56] 92.5

Need inhibition at 30 µM of CCCCC1(CCCC)OC(=O)C(C(c2ccccc2)C2CC2)=C1O (stereo not drawn) [BX-15] , thanks. 122

// inhibition at 30 µM lookup, key: CC/C=C1\OC(=O)C(C(c2ccccc2)C2CC2)=C1O (stereo not drawn) [JX-3] 96.3

# lookup: inhibition at 30 µM of CCCC1(CCC)OC(=O)C(C(c2cccc(N)c2)C2CC2)=C1O (stereo not drawn) [IX-11] 114

# get_value(readout='inhibition at 30 µM', item= O=C1OC(CCCc2ccccc2)(CCCc2ccccc2)C(O)=C1C(c1ccccc1)C1CC1 (stereo not drawn) [DX-13] ) 106

Please look up its inhibition at 30 µM: CCC(C1=C(O)C(CCc2ccccc2)OC1=O)c1ccccc1 (stereo not drawn) [BX-16] 80.3

Field request: inhibition at 30 µM | item: CCCC1(Cc2ccccc2)OC(=O)C(C(c2cccc(NS(=O)(=O)c3ccccc3)c2)C(C)C)=C1O (stereo not drawn) [IX-27] 106

Entry CCCC1(CCC)OC(=O)C(C(Cc2ccccc2)c2cccc(NS(=O)(=O)c3cn(C)cn3)c2)=C1O (stereo not drawn) [IX-40] has what inhibition at 30 µM? 104

These measurements were taken from patent US5977169A.
